Documented kon across a set of binders
Molecular target: T1, RRPPGFSPFR-biotin (mouse)
T1 construct: also called KLP-b; KLP-biotin
T1 peptide: RRPPGFSPFR-biotin
Assay: Biacore, biotin-peptide on SA chip;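 also: purified antibodies injected as twofold dilutions from 0.1 to 10 nM in HBS-EP over streptavidin-captured biotinylated BKR1 or BKR2 ligand peptides, with a random-peptide flow cell as reference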
Ends that are not written are not given here.

binder: humanized F151 variant HC2a/LC2a (antibody, human IgG1, V domains shown, also called LC2axHC2a) VH: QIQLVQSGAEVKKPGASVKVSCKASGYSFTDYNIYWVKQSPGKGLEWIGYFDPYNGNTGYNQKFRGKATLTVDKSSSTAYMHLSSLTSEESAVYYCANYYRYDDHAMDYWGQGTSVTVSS VL: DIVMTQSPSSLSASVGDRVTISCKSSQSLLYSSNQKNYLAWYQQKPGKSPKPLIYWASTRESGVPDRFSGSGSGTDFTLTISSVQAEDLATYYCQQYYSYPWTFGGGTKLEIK
kon (M⁻¹ s⁻¹): 615000
//
binder: humanized F151 variant HC2c/LC2b (antibody, human IgG1, V domains shown, also called LC2bxHC2c) VH: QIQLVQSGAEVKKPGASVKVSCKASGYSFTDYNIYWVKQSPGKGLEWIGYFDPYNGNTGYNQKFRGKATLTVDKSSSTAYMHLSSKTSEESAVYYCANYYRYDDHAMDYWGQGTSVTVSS VL: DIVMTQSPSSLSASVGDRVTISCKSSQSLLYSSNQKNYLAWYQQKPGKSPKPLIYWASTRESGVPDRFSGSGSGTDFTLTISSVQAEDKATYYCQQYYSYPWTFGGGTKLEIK
kon (M⁻¹ s⁻¹): 516000
//
binder: humanized F151 variant HC2b/LC2a (antibody, human IgG1, V domains shown, also called LC2axHC2b) VH: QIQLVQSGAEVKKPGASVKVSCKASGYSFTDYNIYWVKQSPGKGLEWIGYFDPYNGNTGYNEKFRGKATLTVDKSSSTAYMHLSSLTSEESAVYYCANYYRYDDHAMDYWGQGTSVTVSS VL: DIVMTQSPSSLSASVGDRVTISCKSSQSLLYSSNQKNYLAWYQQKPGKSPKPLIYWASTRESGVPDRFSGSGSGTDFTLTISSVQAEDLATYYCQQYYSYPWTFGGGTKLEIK
kon (M⁻¹ s⁻¹): 401000
//
binder: humanized F151 variant HC1/LC1 (antibody, V domains shown, also called LC1xHC1) VH: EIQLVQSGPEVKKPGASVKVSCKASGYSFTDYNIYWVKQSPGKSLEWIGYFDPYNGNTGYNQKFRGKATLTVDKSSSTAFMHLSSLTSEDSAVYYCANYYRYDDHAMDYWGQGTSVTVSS VL: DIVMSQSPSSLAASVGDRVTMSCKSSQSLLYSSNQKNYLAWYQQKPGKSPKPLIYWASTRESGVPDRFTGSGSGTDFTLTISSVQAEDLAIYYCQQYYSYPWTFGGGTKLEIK
kon (M⁻¹ s⁻¹): 481000
